Target: Sigma non-opioid intracellular receptor 1 (Homo sapiens) (UniProt Q99720)
Sequence (Q99720 whole entry): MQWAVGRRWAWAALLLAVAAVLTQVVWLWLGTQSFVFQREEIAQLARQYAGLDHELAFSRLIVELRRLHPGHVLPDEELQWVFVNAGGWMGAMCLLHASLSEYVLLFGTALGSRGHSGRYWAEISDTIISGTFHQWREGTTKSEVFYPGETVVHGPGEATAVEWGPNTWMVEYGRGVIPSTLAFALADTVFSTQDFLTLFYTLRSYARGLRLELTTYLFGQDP
Settings: Compound concentration 10 µM
Description: PDSP Primary Binding target: SIGMAR1 - Compounds are tested at 10 uM concentration, plate are incubated at room temperature in the dark for 90 minutes. Reaction are stopped by vacuum filtration onto 0.3% polyethyleneimine soaked filter mats using Filtermate harvester. Scintilation cocktail is then melted onto microwave-dried filters on a hot plate and the radio activity is counted in Microbia counter.
Note to self: values exactly at 40% are 1. So inhibition at or above 40% is 1, below is -1.

MOLECULE	ASSIGNED_LABEL
c1ccc(N2CCN(Cc3nc4ccccc4[nH]3)CC2)nc1	1
CN1CCN(c2ccc(Nc3c4ccccc4nc4ccccc34)cc2)CC1	1
COc1cccc(-c2c(C)n(Cc3c(F)cccc3C(F)(F)F)c(=O)n(C[C@H](NCCCC(=O)O)c3ccccc3)c2=O)c1F	-1
CS(=O)(=O)NC[C@H]1CC[C@H](Nc2nc3c(s2)CCSc2ccccc2-3)CC1	1
N#Cc1c(O)nc(SCc2cccc(F)c2F)nc1C1CC1	-1
CCCCN(CCCC)C(=O)CN1C[C@@H](c2ccc3c(c2)OCO3)[C@H](C(=O)O)[C@H]1c1ccc(OC)cc1	1
O=c1ccn([C@@H]2O[C@H](COP(=O)(O)OP(=O)(O)OP(=O)(O)O)[C@@H](O)[C@H]2O)c(=O)[nH]1	-1
Cc1ccccc1C(=O)Nc1ccc(C(=O)N2CCCC(O)c3cc(Cl)ccc32)c(C)c1 (centres undefined)	-1
Cc1cc(C)c(N)c(C#Cc2cccc(F)c2)n1	-1

====

Molecular target: 5-hydroxytryptamine receptor 3A (Homo sapiens) (UniProt P46098)
Sequence (P46098 whole entry): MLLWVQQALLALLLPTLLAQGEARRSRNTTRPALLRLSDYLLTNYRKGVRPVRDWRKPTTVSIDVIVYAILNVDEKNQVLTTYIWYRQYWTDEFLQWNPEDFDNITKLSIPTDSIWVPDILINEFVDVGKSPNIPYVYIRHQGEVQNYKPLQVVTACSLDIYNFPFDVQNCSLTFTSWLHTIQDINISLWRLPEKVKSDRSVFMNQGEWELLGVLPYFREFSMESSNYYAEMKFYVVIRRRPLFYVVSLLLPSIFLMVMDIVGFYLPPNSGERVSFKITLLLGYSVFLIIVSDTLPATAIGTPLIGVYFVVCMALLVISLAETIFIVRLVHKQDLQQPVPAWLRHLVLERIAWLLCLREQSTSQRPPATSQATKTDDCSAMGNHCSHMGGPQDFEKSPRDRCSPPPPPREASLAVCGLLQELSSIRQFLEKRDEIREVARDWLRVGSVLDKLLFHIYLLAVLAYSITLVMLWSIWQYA
Settings: Compound concentration 10 µM
Description: PDSP Primary Binding target: HTR3A - Compounds are tested at 10 uM concentration, plate are incubated at room temperature in the dark for 90 minutes. Reaction are stopped by vacuum filtration onto 0.3% polyethyleneimine soaked filter mats using Filtermate harvester. Scintilation cocktail is then melted onto microwave-dried filters on a hot plate and the radio activity is counted in Microbia counter.
ENDPOINT_LABEL: inhibition (%)

COMPOUND	MEASURED_RESULT
CC(C)Oc1ccccc1C(=O)Nc1ccccc1C(=O)Nc1cccc(S(=O)(=O)C(F)(F)F)c1	-3.89
CN[C@@H]1CCc2[nH]c3ccc(C(N)=O)cc3c2C1	24.7
Cc1nc(C(=O)N2CCC[C@H]2Cc2nnc(-c3ccccc3)o2)c(-c2ccccc2F)s1	-1.8
C[C@@H](NCCCc1cccc(C(F)(F)F)c1)c1cccc2ccccc12	15.4
CC(C)NC(=O)c1ccc(C#Cc2ccncc2)cn1	-5.94
COc1ccccc1CN[C@H]1C2CCN(CC2)[C@H]1C(c1ccccc1)c1ccccc1	13.6
COC(=O)[C@H]1[C@H]2C[C@H]3c4[nH]c5ccccc5c4CCN3C[C@H]2CC[C@@H]1O	-2.94
Clc1ccc(CCCOCCCN2CCCCC2)cc1	28.6
CC1CCN(CC[C@H]2CCCN2S(=O)(=O)c2cccc(O)c2)CC1	-9.3
O=C(c1cc2c(cc1F)OC(c1ccc(F)cc1)(c1ccc(Cl)cc1Cl)O2)N1CCOCC1 (centres undefined)	1.36
Cc1nn(C)c(C)c1-c1cccc2c1CC[C@H](N(C)C)C2	85.9
O=c1ccn([C@@H]2O[C@H](COP(=O)(O)OP(=O)(O)OP(=O)(O)O)[C@@H](O)[C@H]2O)c(=O)[nH]1	-3.36
O=C(Cc1ccc(Cl)c(Cl)c1)N1CCCC[C@H]1CN1CCCC1	5.92
COc1ccc(S(=O)(=O)c2cc(OC)ccc2S(=O)(=O)c2ccc([C@H](C)NS(C)(=O)=O)cc2)cc1	-2.2
O=c1ccc2ccc(OCCCCN3CCN(c4cccc5sccc45)CC3)cc2[nH]1	81.9
Oc1ccc2c3c1O[C@H]1c4[nH]c5c(c4C[C@@]4(O)[C@@H](C2)N(CC2CC2)CC[C@]314)C[C@@]1(O)[C@H]2Cc3ccc(O)c4c3[C@@]1(CCN2CC1CC1)[C@H]5O4	6.54
Cc1cccc(NC(=O)N[C@@H]2N=C(c3ccccc3)c3ccccc3N(C)C2=O)c1	-5.37
C[C@H](NC[C@H](O)CP(=O)(O)CC1CCCCC1)c1ccc(Cl)c(Cl)c1	6.3
CSc1ccc(C(=O)N[C@@H]2CCCC[C@@H]2NC(=O)CNC(=O)c2cc(C(F)(F)F)ccc2NC(=O)NC(C)C)cc1	-5.92

====

Biological target: UniProtKB P13945
Sequence (P13945 whole entry, looked up): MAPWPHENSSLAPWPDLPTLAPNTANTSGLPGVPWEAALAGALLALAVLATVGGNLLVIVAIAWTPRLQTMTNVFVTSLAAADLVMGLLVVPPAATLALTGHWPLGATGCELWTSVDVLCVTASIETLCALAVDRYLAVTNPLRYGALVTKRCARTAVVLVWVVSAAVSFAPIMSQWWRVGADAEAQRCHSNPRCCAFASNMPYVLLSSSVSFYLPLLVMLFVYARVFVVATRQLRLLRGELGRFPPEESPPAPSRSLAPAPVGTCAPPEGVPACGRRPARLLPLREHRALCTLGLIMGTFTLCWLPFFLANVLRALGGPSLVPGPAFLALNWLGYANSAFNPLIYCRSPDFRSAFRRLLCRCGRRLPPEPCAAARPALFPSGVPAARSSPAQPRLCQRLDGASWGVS
Settings: Compound concentration 10 µM; call rule not given here
Outcomes: active, inactive

SMILES_REPRESENTATION	EXPERIMENTAL_SYSTEM	ASSIGNED_LABEL
CC1=C2C[C@H]3[C@@H](CC=C4C[C@@H](O)CC[C@@]43C)[C@@H]2CC[C@]12O[C@@H]1C[C@H](C)CN[C@H]1[C@H]2C	UniProtKB P13945	inactive
c1cc(CN2CCCNCCNCCCNCC2)ccc1CN1CCCNCCNCCCNCC1	UniProtKB P13945	inactive
CCC[C@H](Oc1cc(C)c(-n2cc(C(F)(F)F)cn2)c(C)c1)c1ccc(C(=O)NCCC(=O)O)cc1	UniProtKB P13945	active
Cc1ccc2c(c1)c1c(n2CCc2ccc(C)nc2)CCN(C)C1	UniProtKB P13945	inactive
COc1cc(-n2cnc3cc(-c4ccc(Cl)cc4)sc3c2=O)ccc1OCCN1CCCC1	UniProtKB P13945	inactive
CCc1ccc(OCc2ccccc2C(=O)Nc2ccc3nc(C)cc(N)c3c2)cc1	UniProtKB P13945	active
CCOC(=O)c1cc(C#N)c(N2CCC(C(=O)NS(=O)(=O)Cc3ccccc3)CC2)nc1C	UniProtKB P13945	inactive
CCCNS(=O)(=O)Nc1ncnc(OCCOc2ncc(Br)cn2)c1-c1ccc(Br)cc1	UniProtKB P13945	inactive
O=C(Cc1ccccc1)Nc1nc2ccc(Cl)cc2c2nc(-c3ccco3)nn12	UniProtKB P13945	inactive

====

Target: Sodium-dependent serotonin transporter (Homo sapiens) (UniProt P31645)
Sequence (P31645 whole entry, looked up): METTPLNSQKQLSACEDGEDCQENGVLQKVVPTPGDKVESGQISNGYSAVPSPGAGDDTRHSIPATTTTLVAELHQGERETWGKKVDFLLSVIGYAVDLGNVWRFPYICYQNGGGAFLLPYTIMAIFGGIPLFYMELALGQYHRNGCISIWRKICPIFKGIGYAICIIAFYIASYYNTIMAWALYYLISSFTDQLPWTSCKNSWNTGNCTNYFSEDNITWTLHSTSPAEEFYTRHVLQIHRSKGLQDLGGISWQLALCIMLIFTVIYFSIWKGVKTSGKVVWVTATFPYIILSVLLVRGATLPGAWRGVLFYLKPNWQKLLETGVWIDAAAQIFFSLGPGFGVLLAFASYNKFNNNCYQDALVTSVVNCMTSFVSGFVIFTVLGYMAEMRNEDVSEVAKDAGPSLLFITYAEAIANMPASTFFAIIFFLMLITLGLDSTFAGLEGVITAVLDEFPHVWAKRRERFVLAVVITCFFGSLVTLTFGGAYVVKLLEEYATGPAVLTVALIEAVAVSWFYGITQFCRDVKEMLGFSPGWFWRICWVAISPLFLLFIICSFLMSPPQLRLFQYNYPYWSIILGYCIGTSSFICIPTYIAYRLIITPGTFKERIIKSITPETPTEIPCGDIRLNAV
Conditions: Compound concentration 10 µM
Description: PDSP Primary Binding target: SLC6A4 - Compounds are tested at 10 uM concentration, plate are incubated at room temperature in the dark for 90 minutes. Reaction are stopped by vacuum filtration onto 0.3% polyethyleneimine soaked filter mats using Filtermate harvester. Scintilation cocktail is then melted onto microwave-dried filters on a hot plate and the radio activity is counted in Microbia counter.
Note to self: values exactly at 40% are True. So inhibition at or above 40% is True, below is False.

MOLECULE	ASSIGNED_LABEL
COc1ccc(S(=O)(=O)c2cc(OC)ccc2S(=O)(=O)c2ccc([C@H](C)NS(C)(=O)=O)cc2)cc1	False
N#Cc1c[nH]c2c(C(=O)N3CCN(CCc4ccc(F)cc4)CC3)cccc12	True
O=C(c1cc2c(cc1F)OC(c1ccc(F)cc1)(c1ccc(Cl)cc1Cl)O2)N1CCOCC1 (centres undefined)	False
CN1C2CCC1CC(OC(c1ccc(F)cc1)c1ccc(F)cc1)C2 (centres undefined)	False
CCCCN(CC)c1nc(C)nc2c1c(C)cn2-c1c(C)cc(C)cc1C	False
CCOC(=O)c1c(C)[nH]c2ccc3c(c12)CN1CCc2cc(OC)ccc2C1O3 (centres undefined)	False
CS(=O)(=O)NC[C@H]1CC[C@H](Nc2nc3c(s2)CCSc2ccccc2-3)CC1	False
c1nc(CC2CCNCC2)c[nH]1	False
C=CCN1C[C@H](C)N([C@H](c2ccc(C(=O)N(CC)CC)cc2)c2cccc(O)c2)C[C@H]1C	False
C[C@@H](N)Cc1c[nH]cn1	False
N#Cc1ccc2[nH]cc(CCCCN3CCN(c4ccc5oc(C(N)=O)cc5c4)CC3)c2c1	True
NC[C@@H]1O[C@H](C23CC4CC(CC(C4)C2)C3)Cc2c1ccc(O)c2O	False
NC(=O)[C@@H]1CCCN1C(=O)[C@H](Cc1c[nH]cn1)NC(=O)[C@@H]1CCC(=O)N1	False
Cc1nc(-c2ccc(C(F)(F)F)cc2)sc1COc1ccc([C@H](CC(=O)O)c2ccon2)cc1	False
COc1ccccc1N1CCN(CCCCNC(=O)c2ccc3ccccc3c2)CC1	True
C[N+]1(C)[C@@H]2C[C@@H](OC(=O)C(O)(c3cccs3)c3cccs3)C[C@H]1[C@@H]1O[C@@H]12	False
Cc1csc2c(N[C@@H](C)CN3CCN(S(=O)(=O)c4ccc(Cl)c(Cl)c4)CC3)ncnc12	True
O=c1ccc2ccc(OCCCCN3CCN(c4cccc5sccc45)CC3)cc2[nH]1	True
CC(C)NCC(O)COc1ccc(CCOCC2CC2)cc1 (centres undefined)	False
N[C@H](C(=O)O)c1ccc(C(=O)O)c(C(=O)O)c1	True
COc1ccc(NC(=O)c2ccc(-c3ccc(-c4noc(C)n4)cc3C)cc2)cc1OCCN(C)C	True
OCc1cc(C(O)CNCCCCCCOCCCCc2ccccc2)ccc1O (centres undefined)	True
O=S1(=O)c2cccc3cccc(c23)N1CCCN1CCN(c2ccc(F)cc2)CC1	True
NCCc1c[nH]c2ccc(C(N)=O)cc12	True
CN(C)S(=O)(=O)c1ccc(NC(=S)N2CCC(C(O)(c3ccccc3)c3ccccc3)CC2)cc1	False
Cc1c(C(=O)NC2CCCCC2)sc2nc3ccc(N)cc3n12	False
Cc1cc(C)cc(-c2cnc3cc(Cl)c(-c4cccc(O)c4)cc3c2OCCCN)c1	True
FC(F)(F)c1c(N2CCC(c3ccccc3)CC2)ccn2c(CC3CC3)nnc12	True
CN(C)C(=O)N[C@H]1CC[C@H](CCN2CCN(c3cccc(Cl)c3Cl)CC2)CC1	True
CCCCCNC(=O)NS(=O)(=O)c1cc([N+](=O)[O-])ccc1NC1CCCCC1	True
CCC[C@H](Oc1cc(C)c(-n2cc(C(F)(F)F)cn2)c(C)c1)c1ccc(C(=O)NCCC(=O)O)cc1	False
CCCCCCCCCCCCCCCCOC[C@H](COP(=O)([O-])OCC[N+](C)(C)C)OC(C)=O	False
CC(C)(N)C(=O)N[C@H](COCc1ccccc1)C(=O)N1CCC2(CC1)CN(S(C)(=O)=O)c1ccccc12	False
COc1ccc(/C=C/CCCCOc2ccc(C(=O)c3cccc(C(=O)O)c3)cc2CCC(=O)O)cc1	False
CN1CCC(C(=O)c2cccc(NC(=O)c3c(F)cc(F)cc3F)n2)CC1	False
C[C@@H](NCCc1ccc(O)cc1)[C@@H](O)c1ccc(O)cc1 (relative stereo)	True
O=c1ccn([C@@H]2O[C@H](COP(=O)(O)OP(=O)(O)OP(=O)(O)O)[C@@H](O)[C@H]2O)c(=O)[nH]1	False
Cc1ccccc1N1CCN(S(=O)(=O)C[C@]23CC[C@H](C[C@@H]2NC(=O)[C@@H](N)CCS(C)(=O)=O)C3(C)C)CC1	False
